Recorded GI50 by entry
Tested on: MDA-MB-435
protocol description: NCI tumour cell line growth inhibition, 48 h
The source made the active and inactive calls. No stated cut-off is given here; in the data, active = GI50 up to about 1.1 µM and inactive = higher.

{"compound": "CC(C)C1=CC23CCC4C(C)(C(=O)O)CCCC4(C)C2CC1C1C(=O)N(c2ccccc2N2C(=O)C4C5CC6C7(C)CCCC(C)(C(=O)O)C7CCC6(C=C5C(C)C)C4C2=O)C(=O)C13 (centres undefined)", "system name": "MDA-MB-435", "GI50": "3.63 µM (inactive)"}
{"compound": "Clc1ccc2nc3c(c(-c4ccccc4)nn3-c3ccccc3)c(-c3ccccc3)c2c1", "system name": "MDA-MB-435", "GI50": "> 100 µM (inactive)"}
{"compound": "CC(C)(C)c1cc(/C=C/C(=O)CC(=O)/C=C/c2cc(C(C)(C)C)c(O)c(C(C)(C)C)c2)cc(C(C)(C)C)c1O", "system name": "MDA-MB-435", "GI50": "> 50 µM (inactive)"}
{"compound": "CCCCN(C(=O)c1ccccc1)C1CCC(=O)c2[nH]c3ccccc3c21 (centres undefined)", "system name": "MDA-MB-435", "GI50": "23.1 µM (inactive)"}

Values compiled from ChEMBL document CHEMBL1201862.
